pIC50: −log10 of the molar value.
# pIC50 against UniProt:Q9P2K8, merged from multiple literature sources

Field: example entries. Status: answers known.
compound: FC1(F)CCC(N2CCN(c3ccnc(-c4cnc5ccc(C(F)(F)F)cn45)n3)CC2c2cn[nH]c2)CC1 (stereo not drawn)
observable: pIC50
reported.measurement: 7.00 to 8.00
//
compound: C[C@@H]1[C@H](CNS(C)(=O)=O)N(C2CC2)[C@H](C)CN1c1ccnc(-c2cnc3ccc(C(F)(F)F)cn23)n1 (stereo in doubt)
observable: pIC50
reported.measurement: 6.00 to 7.00
//
compound: Cc1nn(C)cc1[C@@H]1C[C@@H](C)CN(c2nccc(-c3cnc4ccc(C(F)(F)F)cn34)n2)C1
observable: pIC50
reported.measurement: 6.00 to 7.00
//
compound: CC(C)C1(C(C)C)OC(=O)Nc2cc(Nc3nc4c(-c5cnn(C)c5)nccn4n3)ccc21
observable: pIC50
reported.measurement: 4.30 to 5.52

Recorded pIC50 for "COc1cc(-c2cnc3ccc(Cl)cn23)nc(N2C[C@H](C)C[C@@H](c3cn[nH]c3)C2)n1" on UniProt:Q9P2K8 was 7.00 to 8.00

Recorded pIC50 for "COCCn1cc(-c2ccc(-n3cnc4cnc(N[C@@H]5CCN(C(=O)CCN6CCN(C)CC6)C5)nc43)cc2)cn1" on UniProt:Q9P2K8 was 5.30 to 6.00
